- Measured target: human glucagon receptor (human) (UniProt P47871)
- Sequence (P47871 26-477): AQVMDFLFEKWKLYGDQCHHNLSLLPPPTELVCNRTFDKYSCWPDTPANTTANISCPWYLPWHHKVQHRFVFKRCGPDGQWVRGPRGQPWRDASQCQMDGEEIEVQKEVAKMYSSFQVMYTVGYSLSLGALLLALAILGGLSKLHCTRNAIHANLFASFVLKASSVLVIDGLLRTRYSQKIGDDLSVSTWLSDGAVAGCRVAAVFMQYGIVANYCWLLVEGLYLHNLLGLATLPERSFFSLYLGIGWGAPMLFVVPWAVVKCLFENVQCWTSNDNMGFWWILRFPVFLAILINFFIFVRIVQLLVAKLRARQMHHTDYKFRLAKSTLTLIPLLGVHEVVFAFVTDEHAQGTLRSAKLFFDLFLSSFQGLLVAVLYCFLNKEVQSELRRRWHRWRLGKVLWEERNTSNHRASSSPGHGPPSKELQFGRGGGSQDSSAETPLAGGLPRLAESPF
- Measurement notes: cell-based or functional assay
Category key, based on recorded cAMP Rel EC50, nM (1% HSA): I (below 400 nM), II (400 nM to below 2000 nM), III (2000 nM or more)

YXQGTXTSDYSILLDKKAQXAFIEYLEEGGPSSGAPPPEEG (synthetic construct; SITE 2: note = 2-Aminoisobutyric Acid; SITE 6: note = alpha-methyl-2-fluoro-L-phenylalanine; SITE 17: note = Lysine is chemically modified through conjugation of the epsilon-amino group of the Lysine side chain with (2-[2-(2-Amino-ethoxy)-ethoxy]-acetyl)-(gamma-Glu)-CO-(CH2) 16-) [Example 399]: II
YXQGTFTSDXSRXLDKKAQXAFIEYLIEXGESSGAPPPSGS (synthetic construct; SITE 2: note = 2-Aminoisobutyric Acid; SITE 10: note = 3-(4-Pyridyl)-L-alanine; SITE 13: note = alpha-methyl-leucine; SITE 17: note = Lysine is chemically modified through conjugation of the epsilon-amino group of the Lysine side chain with (2-[2-(2-Amino-ethoxy)-ethoxy]-acetyl)) [Example 187]: III
YXQGTFTSDXSXXLDKKAQXAFIEXLIEXGPSSGEPPPSGSE (non-natural residues; Lys acylated AEEA-(γGlu)2-C18 diacid; C-terminal amide; synthetic construct; SITE 2: note = 2-Aminoisobutyric Acid; SITE 10: note = 3-(4-Pyridyl)-L-alanine; SITE 12: note = L-ornithine; SITE 13: note = alpha-methyl-leucine; SITE 17: note = Lysine is chemically modified through conjugation of the epsilon-amino group of the Lysine side chain with (2-[2-(2-) [Example 988]: I
YXQGTFTSDXSXXLDXKAQXQFIEXLLEGGPSSGAPPPSGSEE (non-natural residues; acylated Lys; C-terminal amide; synthetic construct; SITE 2: note = 2-Aminoisobutyric Acid; SITE 10: note = 3-(4-Pyridyl)-L-alanine; SITE 12: note = L-ornithine; SITE 13: note = alpha-methyl-leucine; SITE 16: note = L-ornithine; SITE 17: note = Lysine is chemically modified through conjugation of the epsilon-amino group of the Lys) [Example 975]: I
YXQGTFTSDFSXXLDKKAQXAFIEYLLEXGHSSGAPPPSGE (synthetic construct; SITE 2: note = 2-Aminoisobutyric Acid; SITE 12: note = L-ornithine; SITE 13: note = alpha-methyl-leucine; SITE 17: note = Lysine is chemically modified through conjugation of the epsilon-amino group of the Lysine side chain with (2-[2-(2-Amino-ethoxy)-ethoxy]-acetyl)2-(gamma-Glu)) [Example 186]: II

Ask | Tag the class for YXQGTFTSDXSXXLDKKAQXAFIEXLIEXGPSSGEPPPSGS (Lys acylated (γ-Glu)2-C18 diacid; non-natural residues; C-terminal amide; synthetic construct; SITE 2: note = 2-Aminoisobutyric Acid; SITE 10: note = 3-(4-Pyridyl)-L-alanine; SITE 12: note = L-ornithine; SITE 13: note = alpha-methyl-leucine; SITE 17: note = Lysine is chemically modified through conjugation of the epsilon-amino group of the Lysine side chain with (gamma-Gl)) [Example 989]
Reply | I

Ask | Tag the class for YXQGTXTSDYSILLDKIAQXAFIKYLEEGGPSSGAPPPS (not fully specified; synthetic construct; SITE 2: note = 2-Aminoisobutyric Acid; SITE 6: note = alpha-methyl-2-fluoro-L-phenylalanine; SITE 20: note = 2-Aminoisobutyric Acid; SITE 24: note = Lysine is chemically modified through conjugation of the epsilon-amino group of the Lysine side chain with (2-[2-(2-Amino-ethoxy)-) [Example 430]
Reply | II
